# System: chickweed (common chickweed, Stellaria media)
# Test: Test C postemergence
# Assay type: in vivo
# Cond: Stellaria media, post-emergence; Postemergence, 31 g ai/ha, scale 0 to 100; read-out: Plant response rating, Chickweed
Would you kindly list pest or weed control at 31 g/ha for each of these compounds?
Expressed in %, but write only the number.

Item: N#Cc1cccc(Oc2ncc(Cl)cn2)c1Oc1ccc(Cl)cn1 [Compound 16] | pest or weed control at 31 g/ha: 60

Item: Fc1cccc(Oc2ncc(Cl)cn2)c1Oc1ncc(Cl)cn1 [Compound 21] | pest or weed control at 31 g/ha: 50

Item: N#Cc1cccc(Oc2ncc(Cl)cn2)c1Oc1ccc(Cl)cc1 [Compound 36] | pest or weed control at 31 g/ha: 75

Item: Fc1cccc(Oc2ncc(Cl)cn2)c1Oc1ncc(C(F)(F)F)cn1 [Compound 43] | pest or weed control at 31 g/ha: 70

Item: Fc1cccc(Oc2ncc(C(F)(F)F)cn2)c1Oc1ncc(Cl)cn1 [Compound 42] | pest or weed control at 31 g/ha: 90

Item: Fc1cnc(Oc2c(Br)cccc2Oc2ncc(Cl)cn2)nc1 [Compound 22] | pest or weed control at 31 g/ha: 50

Item: Fc1cnc(Oc2c(F)cccc2Oc2ncc(Cl)cn2)nc1 [Compound 23] | pest or weed control at 31 g/ha: 50

Item: Fc1cccc(Oc2ncc(Cl)cn2)c1Oc1ncc(Br)cn1 [Compound 27] | pest or weed control at 31 g/ha: 45
